Biological target: ScBem1-D1
Test: SPOT peptide array binding signal intensity (averaged, normalized) (arbitrary units (background-subtracted, floor 0; scale differs between SH3 domains)); higher = stronger binding of the SH3 domain to the peptide
READOUT_NAME: SPOT peptide array binding signal intensity

>>> value_measured("SLSRRRFSLPSMPNV")
28
>>> value_measured("PHNPSPFFPPPDFND")
"≤ 0"
>>> value_measured("NNQRRKPLLLNIGDH")
3
>>> value_measured("RVRKTHVPASKRPSG")
51
>>> value_measured("SSSSTPPTLPPRRIE")
8
>>> value_measured("PVLPPPRSPNRPTLS")
3.5
>>> value_measured("NNNKMRPHLPPLSSG")
"≤ 0"
>>> value_measured("DTFLPPPPPPPSNFE")
"≤ 0"
>>> value_measured("RPKRRAPPPVPKKPS")
69
>>> value_measured("VATSTSPKLPPRGKQ")
"≤ 0"
>>> value_measured("GRLRPKRIAPWHLIQ")
8.5
>>> value_measured("ITHRLRISIPGITGR")
44.5
>>> value_measured("VPPVPLPFGIPPFPM")
1
>>> value_measured("PPLPRAPPVPPATFE")
"≤ 0"
>>> value_measured("DHPKGPPPPPPPDEK")
4
